System: SNB-19 CNS
assay-overview: NCI-60 one-dose screen, 48 h (100 = growth as untreated, 0 = no growth, -100 = all killed)
applied-conditions: 10 µM unless noted
About 83,000 compounds went through this panel and 20% of them were active in at least one assay; those are over-represented in the sample as a whole.
Please respond with reported growth for every item in the list.
Answers are plain numbers, in %.

molecule=COc1ccc(C(=S)N2CCN(c3cccc(C)c3)CC2)cc1OC reported_property=growth result_units=% result_number=78.5
molecule=COc1ccc(C2=Nn3c(nnc3-c3cc(Cl)cc(Cl)c3Cl)SC2)cc1 reported_property=growth result_units=% result_number=14.3
molecule=COc1ccc(/C=C(\C#N)n2nnc3c(F)cccc32)cc1 reported_property=growth result_units=% result_number=30.7

Batch: growth for all items listed.
1. O=C(Cc1ccc(F)c(Cl)c1)Nc1cc(C2(C(F)(F)F)CC2)nn1CC1CCCCC1
2. CC1(C)C2CC1C1(/C=N/NC(N)=S)C(C2)C(C#N)(C#N)C1(C#N)C#N (stereo not given)

result:
[14.7, 94.8]
